Where do the numbers come from? From patent US6342508B1.

Biological target: MMP 13 (Homo sapiens, UniProt P45452)
Assay: MMP 13 inhibition (HTS)
Assay type: biochemical
Conditions: 36 nM
experimental endpoint: MMP 13 % inhibition at 36 nM (HTS) (%)

compound | MMP 13 % inhibition at 36 nM (HTS), %
CCCCCCC(C(=O)NO)[S+]([O-])c1ccc(NS(=O)(=O)c2ccc(-c3ccccn3)s2)cc1 (stereo not drawn) [Example 237] | 55

[P] CCCCCCC(Sc1ccc(NS(=O)(=O)c2cc(Cl)sc2Cl)cc1)C(=O)NO (stereo not drawn) [Example 233]
[Q] CCCCCCC(C(=O)NO)S(=O)(=O)c1ccc(NS(=O)(=O)c2cccc3nsnc23)cc1 (stereo not drawn) [Example 240]
input: Of the pair P and Q , name the member with the lesser recorded MMP 13 % inhibition at 36 nM (HTS). Give the label of your selection.
output: P

----------
Molecular target: MMP 1 (Homo sapiens, UniProt P03956)
Construct: human recombinant fibroblast collagenase (truncated mw=18,828, WAR, Radnor)
Sequence (P03956 100-269 limits assumed): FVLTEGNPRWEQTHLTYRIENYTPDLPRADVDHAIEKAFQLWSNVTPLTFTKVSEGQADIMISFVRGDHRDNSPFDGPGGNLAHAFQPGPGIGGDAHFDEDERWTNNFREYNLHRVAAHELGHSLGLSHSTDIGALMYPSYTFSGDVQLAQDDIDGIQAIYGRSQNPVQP
Experiment: In Vitro Collagenase Assay (human recombinant fibroblast collagenase, fluorogenic peptide substrate)
Settings: read-out: MMP 1 IC 50
experimental endpoint: IC50 (nM)

// known answers, use as guide
compound | unit descriptor | IC50
COc1ccc(S(=O)(=O)C2(C(=O)NO)CCN(Cc3ccc4ccccc4c3)CC2)cc1 [Example 87] | nM | 368
COc1ccc(S(=O)(=O)C2(C(=O)NO)CCN(Cc3ccc(-c4ccccc4)cc3)CC2)cc1 [Example 88] | nM | 1330
COc1ccc(S(=O)(=O)C(C)(CC=C(C)C)C(=O)NO)cc1 (centres unmarked) [Example 13] | nM | 239
CCN(CC)CCOc1ccc(CC(C)(C(=O)NO)S(=O)(=O)c2ccc(OC)cc2)cc1 (centres unmarked) [Example 21] | nM | 318
COc1ccc(S(=O)(=O)C2(C(=O)NO)CCN(CC=C(C)C)CC2)cc1 [Example 89] | nM | 1390

[A] CCN(CC)CCOc1cccc(CC(C)(C(=O)NO)S(=O)(=O)c2ccc(OC)cc2)c1 (centres unmarked) [Example 29]
[B] CC(Cc1ccc(OCCN2CCCCC2)cc1)(C(=O)NO)S(=O)(=O)c1ccc(Br)cc1 (centres unmarked) [Example 50]
[C] COc1ccc(CS(=O)(=O)C(C)(Cc2ccccc2)C(=O)NO)cc1 (centres unmarked) [Example 41]
[D] CCCC(Cc1ccc(OCCN2CCOCC2)cc1)(C(=O)NO)S(=O)(=O)c1ccc(OC)cc1 (centres unmarked) [Example 35]
[E] CCCCC[C@H](C(=O)NO)[S@+]([O-])c1ccc(OC)cc1 (relative stereo) [Example 81a]
input: With regard to IC50, arrange the entries in ascending order, please. Return value: ordered labels per request.
output: B, C, A, D, E
(B: 51.1 nM, C: 100 nM, A: 297 nM, D: 456 nM, E: 2040 nM)

----------
Target: TACE (Homo sapiens)
Construct: purchased Immunex
Sequence (P78536 215-824): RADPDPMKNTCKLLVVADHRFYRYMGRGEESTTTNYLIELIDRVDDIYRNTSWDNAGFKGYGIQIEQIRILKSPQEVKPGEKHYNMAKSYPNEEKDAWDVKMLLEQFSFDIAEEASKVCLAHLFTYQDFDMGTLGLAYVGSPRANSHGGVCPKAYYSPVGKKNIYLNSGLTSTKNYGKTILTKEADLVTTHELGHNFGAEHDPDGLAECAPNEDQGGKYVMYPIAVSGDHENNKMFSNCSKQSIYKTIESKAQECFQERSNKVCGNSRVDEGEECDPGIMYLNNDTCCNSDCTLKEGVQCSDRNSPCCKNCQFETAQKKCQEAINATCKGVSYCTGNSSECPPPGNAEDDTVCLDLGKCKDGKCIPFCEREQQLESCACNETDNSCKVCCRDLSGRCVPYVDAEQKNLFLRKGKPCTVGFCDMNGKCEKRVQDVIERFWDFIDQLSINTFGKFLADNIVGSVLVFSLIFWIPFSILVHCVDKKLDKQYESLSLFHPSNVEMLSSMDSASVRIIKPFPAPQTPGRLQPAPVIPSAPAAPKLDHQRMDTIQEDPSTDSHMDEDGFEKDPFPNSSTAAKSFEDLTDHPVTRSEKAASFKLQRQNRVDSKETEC
Assay: Procedure for Measuring TACE Inhibition (fluorescent peptidyl substrate)
Assay type: biochemical
Settings: read-out: TACE IC 50
experimental endpoint: IC50 (µM)

molecule | unit descriptor | observed result
COc1ccc(S(=O)(=O)C(CC=C(C)C)(Cc2ccc(OCCN3CCOCC3)cc2)C(=O)NO)cc1 (centres unmarked) | µM | 0.0475

[a] COc1ccc(S(=O)(=O)C2(C(=O)NO)CCN(C(C)(C)C)CC2)cc1
[b] COc1ccc(S(=O)(=O)C2(C(=O)NO)CCN(C3CCCCCCC3)CC2)cc1
input: Of the pair a and b , name the member with the lesser recorded IC50. Give the label of your selection.
output: a
(a: 0.0097 µM, b: 0.0229 µM)

----------
Target: MMP 9 (Homo sapiens)
Construct: from tissue; host or cells: human neutrophils
Assay: In Vitro Gelatinase Assay (human neutrophil gelatinase B, thiopeptide substrate/DTNB)
Format: biochemical
Conditions: read-out: MMP 9 IC 50
pIC50: −log10 of the molar value.
experimental endpoint: pIC50

[1] CC(Cc1ccc(OCCN2CCCCC2)cc1)(C(=O)NO)S(=O)(=O)c1ccc(Br)cc1 (centres unmarked)
[2] CCN(CC)CCOc1cccc(CC(C)(C(=O)NO)S(=O)(=O)c2ccc(OC)cc2)c1 (centres unmarked)
input: Between 1 and 2 , whose recorded pIC50 is greater? Give the label of your selection.
output: 2

[1] COc1ccc([S+]([O-])C(C(=O)NO)c2ccccc2)cc1 (centres unmarked)
[2] COc1ccc(S(=O)(=O)C2(C(=O)NO)CCN(Cc3ccc4ccccc4c3)CC2)cc1
[3] CCN(CC)CCOc1ccc(CC(C)(C(=O)NO)S(=O)(=O)c2ccc(OC)cc2)cc1 (centres unmarked)
[4] CCOc1ccc(S(=O)(=O)C(C)(Cc2ccc(OCCN(CC)CC)cc2)C(=O)NO)cc1 (centres unmarked)
input: With regard to pIC50, arrange the entries in ascending order, please. Return value: ordered labels per request.
output: 1, 4, 3, 2
(1: 6.46, 4: 7.57, 3: 7.88, 2: 8.30)

----------
experimental endpoint: melting point (°C)

[I] COc1ccc(S(=O)(=O)C(C)(Cc2ccc(OCCN3CCCCCC3)cc2)C(=O)NO)cc1 (centres unmarked)
[II] CCCCOc1ccc(S(=O)(=O)C2(C(=O)NO)CCN(Cc3ccc(F)cc3)CC2)cc1
input: Between I and II , whose recorded melting point is greater? Give the label of your selection.
output: II
(II: 112 °C, I: 68 °C)

----------
Molecular target: MMP 9 (Homo sapiens, UniProt P14780)
Construct: from tissue; host or cells: human neutrophils
Sequence (P14780 94-707): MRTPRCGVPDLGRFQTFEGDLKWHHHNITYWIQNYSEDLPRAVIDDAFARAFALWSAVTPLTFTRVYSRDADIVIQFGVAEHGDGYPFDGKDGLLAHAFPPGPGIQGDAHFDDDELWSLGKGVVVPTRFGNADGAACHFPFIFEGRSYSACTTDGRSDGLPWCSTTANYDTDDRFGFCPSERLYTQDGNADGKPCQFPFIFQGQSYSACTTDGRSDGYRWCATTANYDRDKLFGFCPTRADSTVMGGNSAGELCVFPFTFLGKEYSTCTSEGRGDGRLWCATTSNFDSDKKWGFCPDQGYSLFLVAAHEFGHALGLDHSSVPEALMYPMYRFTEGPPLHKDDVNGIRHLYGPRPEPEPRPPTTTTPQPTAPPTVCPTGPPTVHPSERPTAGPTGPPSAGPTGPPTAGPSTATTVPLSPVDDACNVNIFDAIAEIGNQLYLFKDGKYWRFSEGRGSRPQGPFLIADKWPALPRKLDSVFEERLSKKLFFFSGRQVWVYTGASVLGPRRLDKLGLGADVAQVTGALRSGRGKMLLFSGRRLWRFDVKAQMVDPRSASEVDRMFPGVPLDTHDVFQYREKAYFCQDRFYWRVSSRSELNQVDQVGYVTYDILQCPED
Assay: In Vitro Gelatinase Assay (human neutrophil gelatinase B, thiopeptide substrate/DTNB)
Format: biochemical
Settings: 1 micromolar
experimental endpoint: MMP 9 % inhibition at 1 micromolar (%)

molecule | MMP 9 % inhibition at 1 micromolar, %
Cc1occc1S(=O)(=O)C(C)(Cc1ccc(OCCN2CCCCC2)cc1)C(=O)NO (stereo not shown) | 36.9

[1] CC(Cc1ccccc1)(C(=O)NO)S(=O)(=O)c1cccs1 (stereo not shown)
[2] CC(C(=O)O)S(=O)(=O)CCCCCCCCS(=O)(=O)C(C)C(=O)NO (stereo not shown)
input: Between 1 and 2 , whose recorded MMP 9 % inhibition at 1 micromolar is greater? Give the label of your selection.
output: 1
(1: 79.1%, 2: 23.7%)

[I] Cc1occc1S(=O)(=O)C(C)(Cc1ccccc1)C(=O)NO (stereo not shown)
[II] CCCCCCCCS(=O)(=O)C(Cc1ccc(OCCN2CCCCC2)cc1)C(=O)NO (stereo not shown)
input: Of the pair I and II , name the member with the lesser recorded MMP 9 % inhibition at 1 micromolar. Give the label of your selection.
output: I
(I: 34.7%, II: 79.12%)

[1] CC(Cc1ccc(OCCN2CCCCC2)cc1)(C(=O)NO)S(=O)(=O)c1cccs1 (stereo not shown)
[2] CCCCCCC(Sc1ccc(OC)cc1)C(=O)NO (stereo not shown)
input: Of the pair 1 and 2 , name the member with the lesser recorded MMP 9 % inhibition at 1 micromolar. Give the label of your selection.
output: 2

----------
Structures can show the parent of a compound that is named as a salt.
experimental endpoint: melting point (°C)

compound | unit descriptor | melting point
COc1ccc(CCN2CCC(C(=O)NO)(S(=O)(=O)c3ccc(OC)cc3)CC2)cc1 (as salt: HCl) | °C | 206
COc1ccc(SC(C)(Cc2ccccc2)C(=O)NO)cc1 (stereo not shown) | °C | 88
COc1ccc([S+]([O-])C(C)(CC=C(C)C)C(=O)NO)cc1 (stereo not shown) | °C | 108
CCCCOc1ccc(S(=O)(=O)C2(C(=O)NO)CCN(CCCOc3ccccc3)CC2)cc1 | °C | 84
COc1ccc(CN2CCC(C(=O)NO)(S(=O)(=O)c3ccc(OC)cc3)CC2)cc1 (as salt: HCl) | °C | 175
COc1ccc(S(=O)(=O)C(CCC(C)C)(Cc2cccnc2)C(=O)NO)cc1 (stereo not shown) (as salt: HCl) | °C | 62
CCCCC(C(=O)NO)S(=O)(=O)c1ccc(OC)cc1 (stereo not shown) | °C | 130
COc1ccc(S(=O)(=O)C2(C(=O)NO)CCN(Cc3ccc(OCCN4CCCCC4)cc3)CC2)cc1 (as salt: HCl) | °C | 114

[a] CCCCC(Cc1cccnc1)(C(=O)NO)S(=O)(=O)c1ccc(OC)cc1 (stereo not shown)
[b] C#CCC(CC#C)(C(=O)NO)S(=O)(=O)c1ccc(OC)cc1
[c] COc1ccc(S(=O)(=O)C2(C(=O)NO)CCN(C(C)(C)C)CC2)cc1
input: With regard to melting point, arrange the entries in ascending order, please. Return value: ordered labels per request.
output: c, a, b
(c: 40 °C, a: 70 °C, b: 156 °C)

[A] COc1ccc(S(=O)(=O)C(CCCCOc2ccccc2)(Cc2cccnc2)C(=O)NO)cc1 (stereo not shown)
[B] COc1ccc(S(=O)(=O)C(C)(Cc2cccnc2)C(=O)NO)cc1 (stereo not shown)
input: Between A and B , whose recorded melting point is greater? Give the label of your selection.
output: B

[A] COc1ccc(S(=O)(=O)C2(C(=O)NO)CCN(CCCc3ccccc3)CC2)cc1
[B] COc1ccc(S(=O)(=O)C(C)(CC2CCCCC2)C(=O)NO)cc1 (stereo not shown)
input: Between A and B , whose recorded melting point is greater? Give the label of your selection.
output: A

[I] CC#CCC(Cc1cccnc1)(C(=O)NO)S(=O)(=O)c1ccc(F)cc1 (stereo not shown) (as salt: salt)
[II] CCN1CCC(C(=O)NO)(S(=O)(=O)c2ccc(OC)cc2)CC1
input: Between I and II , whose recorded melting point is greater? Give the label of your selection.
output: I
(I: 190 °C, II: 85 °C)
